molecular target: T1, DENV-4 nonstructural protein 1 (NS1), recombinant (Dengue virus 4, strain …, UniProt P09866); test: SPR; settings: both partners purified
T1 construct: also called DENV-4 NS1; NS1 from DENV-4; source: bought: Native Antigen Company (recombinant)
property: pKd
As a rule, pKd stands for the negative log10 of the concentration, concentration in M.

Worked set:
binder: sdAb DC7 (VHH, source: E. coli Turner (DE3), pET22b, periplasmic, purified (Ni-Sepharose, SEC)) VHH: EVQLQASGGGSVQAGGSLRLSCAHSSITVPDYTIGWYRRAPGKGGEEVSLISMHGGRTWYAGSVKGRFAISRDSVKNTVYLQMNNLKPEDTDIYYCGGTTFGLAAAPNEYDSWGQGSQVTVSS
resultValue: 9.15
--
binder: sdAb DD9 (VHH, source: E. coli Turner (DE3), pET22b, periplasmic, purified (Ni-Sepharose, SEC)) VHH: EVQLQASGGGLVQAGGSLRVSCAASGIAFTNYALAWYRQPPGKQREWVATVGVLGGTKYADSVKGRFAISRDNAKNTVILQMNSLKPVDTAVYFCAAVEWSNGRYYWDSWGQGTQVTVSA
resultValue: 8.15
--
binder: sdAb DD5 (VHH, source: E. coli Turner (DE3), pET22b, periplasmic, purified (Ni-Sepharose, SEC)) VHH: EVQLQASGGGLVQAGGSLRLSCAASGRAFSSETMGWFRQAPGKEREFVAAIWRIGGSTYNTDYADSVKGRFAISADRAKNTVDLQMNTLKPEDTAVYYCAGKMRGRSVNLYDYDYWGQGTQVTVSS
resultValue: 8.21
--
binder: sdAb DD7 (VHH, source: E. coli Turner (DE3), pET22b, periplasmic, purified (Ni-Sepharose, SEC)) VHH: EVQLVQSGGGSVQAGGSLRLSCAHSSITVPDYTIGWFRRAPGKGGEEVSLISMHGGRSWYAGSVKGRFAISRDSVKNTVYLQMNNLKPEDTDIYYCGGTTFGLAAAPNEYDSWGQGSQVTVSS
resultValue: 8.96

Consider the additional binder presented here.
Reported pKd ( sdAb DD1 (VHH, source: E. coli Turner (DE3), pET22b, periplasmic, purified (Ni-Sepharose, SEC)) VHH: EVQLQASGGGLVQAGGSLRVSCAATGIAFASYAVAWYRQAPGKQREWVATVGGLGGTKYVDSVKGRFTISRDNAKNAVTLQMNSLKPEDTAVYYCAAVEWDDGHYYWDTWGQGTRVTVSA ) = 9.22
